# TEST DETAILS: small-molecule microarray binders of probe aWnt5a, primary screen, biochemical, biotinylated probe, 635/667 nm fluorescence (AID 1113);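 also: score merges 667 nm fluorescence intensity with signal-to-noise per printed feature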
# CONDITION DESCRIPTION: higher = more signal
Response field class: string, computed from recorded composite z-score by ranges lower: < -0.05; middle: ≥ -0.05 and < 0.07; upper: ≥ 0.07

>>> label_value("O=C1O[C@H](c2ccccc2)[C@H](c2ccccc2)N2[C@H]1[C@@H](C(=O)N1CCN(c3ncccn3)CC1)[C@]1(C(=O)Nc3ccc(C#CC4=CCCCC4)cc31)[C@H]2c1ccc(O)cc1")
"lower"
>>> label_value("O=C1OCCC/C=C\\[C@H]2OC34C=CCN(c5ccc6ccccc6c5)C(=O)[C@H]3N(CCCCCCO)C(=O)[C@@H]4C12 (stereo partly specified)")
"lower"
>>> label_value("COc1ccc([Si](C)(C)[C@H]2[C@H](CCO)O[C@@]3(C(=O)N(Cc4ccc(N5C(=O)COc6ccccc65)cc4)c4ccccc43)[C@@H]2C)cc1")
"lower"
>>> label_value("COC(=O)C(CC#Cc1ccc2c(c1)[C@]1(C(=O)N2)[C@H](c2ccc(O)cc2)N2[C@H](c3ccccc3)[C@H](c3ccccc3)OC(=O)[C@H]2[C@@H]1C(=O)Nc1nc2ccccc2s1)C(=O)OC")
"upper"
>>> label_value("CN1C(=O)C2C=CC(C(O)c3ccc(I)cc3)N(N3CCCCC3)C2C1=O (stereo unspecified)")
"middle"
>>> label_value("C=C(C)C1C(=C)CN([C@H](CO)c2ccccc2)C1=O (stereo partly specified)")
"middle"
>>> label_value("[N-]=[N+]=NCc1ccccc1C[C@]1(C(=O)NCC(O)CO)N=C(c2ccc(OCCCO)cc2)O[C@H]1c1ccccc1 (stereo partly specified)")
"middle"
>>> label_value("C=CC[C@]1(C(=O)NCCCOC)N=C(c2ccc(OCCCO)cc2)O[C@H]1c1ccccc1N=[N+]=[N-]")
"upper"

Task: Input O=C1NC(=O)C2C1C=CC(C(O)C(c1ccccc1)c1ccccc1)N2Nc1ccc(Cl)cc1Cl (stereo unspecified) ; output its category
Result: middle

Task: Input CN1C(=O)C2C=CC(C(O)c3ccc(-c4ccccc4)s3)N(N(c3ccccc3)c3ccccc3)C2C1=O (stereo unspecified) ; output its category
Result: middle

Task: Input `C[C@@H]1ON(c2cccc(C(=O)OC(C)(C)C)c2)[C@H](c2ccc(Br)cc2)[C@H]1C(=O)N1C(=O)OC[C@H]1Cc1ccccc1` ; output its category
Result: upper

----------
# STUDY TARGET: Torsin-1A (Homo sapiens)
# TEST DETAILS: small-molecule binders of mutant TOR1A in lysate, primary screen, cell lysate, small-molecule microarray, COS7 lysate, 635/667 nm fluorescence (AID 1150);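 also: score pools 667 nm emission and signal to noise measuring lysate protein binding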
# CONDITION DESCRIPTION: COS7 hTOR1A mutant lysate, 635 nm fluorescence, higher = more signal
OUTCOME MEASURE: composite z-score

The examples below pair each entry with its known result.
>>> result("COC(=O)[C@@]1(Cc2ccccc2)[C@H]2c3cc(C(=O)N(C)C)n(CCSCCO)c3C[C@H]2CN1C(=O)c1ccccc1")
0.796
>>> result("C[N+](C)(C)CCCC[C@@H]1NC(=O)[C@@H]2C[C@H](C(=O)NCCCCCN)[C@H](c3cccc(OCCO)c3)N2C1=O")
-0.149

Task: Fill in the blank: the reported composite z-score of `[N-]=[N+]=Nc1ccccc1C[C@]1(C(N)=O)N=C(c2ccc(OCCCO)cc2)O[C@H]1c1ccccc1` is ____.
Result: -0.0736

Task: Fill in the blank: the reported composite z-score of CN1C(=O)C2C=CC(C(O)c3cccs3)N(Nc3ccccc3)C2C1=O (stereo unspecified) is ____.
Result: 0.738

Task: Fill in the blank: the reported composite z-score of `C=CCOC(=O)[C@@H]1[C@H]2C(=O)O[C@H](c3ccccc3)[C@H](c3ccccc3)N2[C@H](c2ccc(OCCOC(=O)[C@@H]3C[C@@H]4C(=O)N5CCC[C@H]5C(=O)N4[C@@H]3c3ccc(O)cc3)cc2)[C@@]12C(=O)Nc1ccc(I)cc12` is ____.
Result: 0.878

Task: Fill in the blank: the reported composite z-score of CC(CO)N1C(=O)[C@@H]2C3C(=O)OCCC/C=C\[C@H]3OC23C=CCN(c2ccc4ccccc4c2)C(=O)[C@@H]13 (stereo partly specified) is ____.
Result: -1.03

Task: Fill in the blank: the reported composite z-score of `C=C/C=C/[C@H]1C(=C)CN([C@@H](Cc2ccccc2)C(=O)OC)[C@@H]1[C@H](O)Cc1ccccc1` is ____.
Result: -1.4

Task: Fill in the blank: the reported composite z-score of O=C1OCCC=C[C@H]2OC34C=CCN(CCN5CCOCC5)C(=O)[C@H]3N(CCCCCCO)C(=O)[C@@H]4C12 (stereo partly specified) is ____.
Result: -0.839

Task: Fill in the blank: the reported composite z-score of C=CCC(OC(C)=O)[C@@H]1[C@@H](N(Cc2ccc(-c3cccc(C(F)(F)F)c3)o2)C(=O)Cc2ccc(F)cc2)c2cc(OCCCO)ccc2N1C(=O)Cc1ccc(OC)cc1 (stereo partly specified) is ____.
Result: -0.945

Task: Fill in the blank: the reported composite z-score of `COCCOC(=O)N1C(=O)[C@@]2(c3ccccc31)[C@H](c1ccccc1OCCO)N1[C@H](c3ccccc3)[C@H](c3ccccc3)OC(=O)[C@H]1[C@@H]2C(=O)Nc1nc2ccccc2s1` is ____.
Result: 1.25

Task: Fill in the blank: the reported composite z-score of `CCCCCCC#C[Si](O[C@H](c1ccccc1)c1cn([C@H](CO)Cc2ccccc2)nn1)(C(C)C)C(C)C` is ____.
Result: 0.211

----------
# TEST DETAILS: COS7 lysate on small-molecule microarray, probe aHis, 635 nm (AID 1123);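 also: z-score combines 667nm fluorescence intensity with signal-to-noise per printed compound spot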
# CONDITION DESCRIPTION: COS7 cell lysate, fluorescence, higher = more signal
# composite z-score per entry
Would you mind answering with just the numeric figure?

>>> result_number("COC(=O)[C@@]1(Cc2ccc(F)cc2)[C@H]2c3cc(C(=O)N4CCCC4)n(Cc4cc(C)n(C)n4)c3C[C@H]2CN1C(=O)c1ccccc1")
3.58
>>> result_number("COc1ccc(CCN2C(=O)[C@@]3(c4ccc([N+](=O)[O-])cc4)CC(=O)N(C4CCCCC4)[C@@H]3c3ccc(CO)cc32)cc1")
0.622
>>> result_number("C=CC[C@@]1(C(N)=O)N=C(c2ccc(OCCCO)cc2)O[C@@H]1c1ccccc1CN=[N+]=[N-]")
3.25
>>> result_number("CCC(CC)C(O)C1C=CC2C(=O)N(C)C(=O)C2N1Nc1ccccc1 (stereo not given)")
2.5

Now examine the next entry.
Task: Fill in the blank: the reported composite z-score of `CCc1oc(CC[C@@H](CO)NC(=O)NCCn2cc(C3(O)CCCCC3)nn2)c(C(=O)OC)c1C(=O)OC` is ____.
Result: 0.376

----------
# STUDY TARGET: Calmodulin-1 (Homo sapiens)
# TEST DETAILS: calcium-bound CALM1 binders on microarrays, profiling panel, artefact control for SMM control-protein annotation, biochemical, small-molecule microarray, Cy5-labelled CALM1, plus calcium (AID 1112);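 also: score merges spot fluorescence with signal to noise from triplicate slides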
# CONDITION DESCRIPTION: Cy5-CALM1 binding fluorescence, higher = more signal
OUTCOME MEASURE: composite z-score
Would you mind answering with just the numeric figure?

The examples below pair each entry with its known result.
>>> result_number("COC(=O)[C@@]1(Cc2ccc(F)cc2)[C@H]2c3cc(C(=O)N4CCCC4)n(Cc4ccc(C)o4)c3C[C@H]2CN1C(=O)c1ccccc1")
0.558
>>> result_number("CCCC[C@H]1OB(O)C[C@H]2C1=C(COc1ccccc1)C[C@H]1C(=O)N(C)C(=O)[C@H]12")
-0.255
>>> result_number("C#CCN(Cc1ccccc1Br)C(/C=C/c1ccccc1)CO (configuration not stated)")
-0.423
>>> result_number("COc1cc2c(cc1OC)CN(C(=O)[C@H]1[C@@H]3C(=O)O[C@@H](c4ccccc4)[C@@H](c4ccccc4)N3[C@@H](c3ccc(O)cc3)[C@]13C(=O)Nc1ccc(C#CC4=CCCCC4)cc13)CC2")
0.0648

Task: Entry `CCCCC(=C=CC[C@@H](O)c1ccccc1OCCO)CCO` , system Calmodulin-1 (Homo sapiens): what composite z-score was measured?
Result: 0.23

Task: Entry `COc1ccc(CCN2C(=O)[C@@]3(Cc4ccccc42)c2ccccc2C(=O)N(Cc2ccccc2C(F)(F)F)[C@H]3c2ccc(CO)cc2)cc1` , system Calmodulin-1 (Homo sapiens): what composite z-score was measured?
Result: -0.839

Task: Entry `C=CCNC(=O)[C@H]1[C@@H]2C(=O)O[C@@H](c3ccccc3)[C@@H](c3ccccc3)N2[C@@H](c2ccc(O)cc2)[C@]12C(=O)N(C(=O)OCCOC)c1ccc(C#CCNC(N)=O)cc12` , system Calmodulin-1 (Homo sapiens): what composite z-score was measured?
Result: 0.143
